Test target: T1, hMSLN-His-Avi (human, UniProt Q13421 296-598, single biotin on the Avi tag in the biotinylated form)
T1 construct: Monomeric; also called human MSLN-His-Avi; hMSLN-Avi-His
T1 sequence (Q13421 other isoform, or with tags, fused parts or gaps): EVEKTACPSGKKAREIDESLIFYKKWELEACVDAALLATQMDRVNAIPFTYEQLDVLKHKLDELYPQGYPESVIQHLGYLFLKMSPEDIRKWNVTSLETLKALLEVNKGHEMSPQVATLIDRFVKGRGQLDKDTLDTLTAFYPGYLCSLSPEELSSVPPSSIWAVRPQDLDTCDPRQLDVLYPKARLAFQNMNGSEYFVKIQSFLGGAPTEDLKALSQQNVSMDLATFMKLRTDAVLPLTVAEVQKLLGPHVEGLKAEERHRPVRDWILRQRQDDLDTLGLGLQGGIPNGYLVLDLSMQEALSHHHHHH
Protocol summary: SPR, hMSLN-His-Avi immobilised ~100 RU, mAb2 injected
pKd: −log10 of the molar value.
// reported pKd for each item listed
Value type: pKd

{"Binder": "FS22-172-003-AA/FS28-256-272 (bispecific antibody, human IgG1, kappa, L234A L235A, V domains shown, IgG1 mAb^2 with LALA) VH: EVQLLESGGGLVQPGGSLRLSCAASGFTFTHTYMSWVRQAPGKGLEWVSHISPTYSTTNYADSVKGRFTISRDNNKNTLYLQMNSLRAEDTAVYYCARYNAYHAALDYWGQGTLVTVSS VL: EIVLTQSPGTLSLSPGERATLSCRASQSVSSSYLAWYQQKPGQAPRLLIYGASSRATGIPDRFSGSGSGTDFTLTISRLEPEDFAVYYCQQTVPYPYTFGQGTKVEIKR", "Result value": 7.97}
{"Binder": "FS22-172-003-AA/FS28-185 (bispecific antibody, human IgG1, kappa, L234A L235A, V domains shown, IgG1 mAb^2 with LALA; also called FS28-185 in CD137 mAb^2 format) VH: EVQLLESGGGLVQPGGSLRLSCAASGFTFTTSAMSWVRQAPGKGLEWVSRINPYEGETNYADSVKGRFTISRDNSKNTLYLQMNSLRAEDTAVYYCARGWSIATYYKSAMDYWGQGTLVTVSS VL: EIVLTQSPGTLSLSPGERATLSCRASQSVSSSYLAWYQQKPGQAPRLLIYGASSRATGIPDRFSGSGSGTDFTLTISRLEPEDFAVYYCQQSSYSAPVTFGQGTKVEIKR", "Result value": 7.30}
{"Binder": "FS22-172-003-AA/FS28-024-051 (bispecific antibody, human IgG1, kappa, L234A L235A, V domains shown, IgG1 mAb^2 with LALA) VH: EVQLLESGGGLVQPGGSLRLSCAASGFTLSYSSMSWVRQAPGKGLEWVSFITPSTGYTHYADSVKGRFTISRDNSKNTLYLQMNSLRAEDTAVYYCARRALIFDYWGQGTLVTVSS VL: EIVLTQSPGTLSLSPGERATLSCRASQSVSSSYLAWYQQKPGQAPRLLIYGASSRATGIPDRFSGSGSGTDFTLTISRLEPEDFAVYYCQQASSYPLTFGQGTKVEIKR", "Result value": 9.40}
{"Binder": "FS22-172-003-AA/FS28-256-021 (bispecific antibody, human IgG1, kappa, L234A L235A, V domains shown, IgG1 mAb^2 with LALA) VH: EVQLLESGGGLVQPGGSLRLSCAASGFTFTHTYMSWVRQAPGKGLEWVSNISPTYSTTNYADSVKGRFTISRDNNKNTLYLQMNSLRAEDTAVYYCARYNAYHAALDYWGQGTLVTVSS VL: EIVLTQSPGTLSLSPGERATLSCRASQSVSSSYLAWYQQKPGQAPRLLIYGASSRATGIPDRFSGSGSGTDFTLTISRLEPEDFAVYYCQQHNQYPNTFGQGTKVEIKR", "Result value": 8.64}
{"Binder": "FS22-172-003-AA/FS28-024-052 (bispecific antibody, human IgG1, kappa, L234A L235A, V domains shown, IgG1 mAb^2 with LALA) VH: EVQLLESGGGLVQPGGSLRLSCAASGFTLSYSSMSWVRQAPGKGLEWVSFITPSTGYTHYADSVKGRFTISRDNSKNTLYLQMNSLRAEDTAVYYCARRALLFDYWGQGTLVTVSS VL: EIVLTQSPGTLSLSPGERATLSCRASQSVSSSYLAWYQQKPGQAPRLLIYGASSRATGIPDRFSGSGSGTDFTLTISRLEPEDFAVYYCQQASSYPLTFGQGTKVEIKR", "Result value": 9.41}
{"Binder": "FS22-172-003-AA/FS28-256-023 (bispecific antibody, human IgG1, kappa, L234A L235A, V domains shown, IgG1 mAb^2 with LALA) VH: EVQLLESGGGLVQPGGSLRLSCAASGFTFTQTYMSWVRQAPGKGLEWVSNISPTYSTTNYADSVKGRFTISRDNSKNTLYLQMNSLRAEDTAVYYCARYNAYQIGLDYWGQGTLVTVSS VL: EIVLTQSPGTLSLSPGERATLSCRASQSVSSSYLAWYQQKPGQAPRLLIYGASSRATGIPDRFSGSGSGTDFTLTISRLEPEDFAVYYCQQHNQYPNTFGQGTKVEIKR", "Result value": 8.51}
{"Binder": "FS22-172-003-AA/FS28-256 (bispecific antibody, human IgG1, kappa, L234A L235A, V domains shown, IgG1 mAb^2 with LALA) VH: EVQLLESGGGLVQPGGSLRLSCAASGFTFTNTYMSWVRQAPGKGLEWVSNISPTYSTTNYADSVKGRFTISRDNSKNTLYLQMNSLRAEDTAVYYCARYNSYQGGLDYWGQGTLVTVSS VL: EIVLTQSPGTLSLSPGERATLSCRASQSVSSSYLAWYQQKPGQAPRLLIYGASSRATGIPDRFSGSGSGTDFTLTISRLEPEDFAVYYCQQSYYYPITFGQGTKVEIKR", "Result value": 7.44}
{"Binder": "FS22-172-003-AA/FS28-024 (bispecific antibody, human IgG1, kappa, L234A L235A, V domains shown, IgG1 mAb^2 with LALA; also called FS28-024 in CD137 mAb^2 format) VH: EVQLLESGGGLVQPGGSLRLSCAASGFTLSYSSMSWVRQAPGKGLEWVSFITPSTGYTHYADSVKGRFTISRDNSKNTLYLQMNSLRAEDTAVYYCARRALTFDYWGQGTLVTVSS VL: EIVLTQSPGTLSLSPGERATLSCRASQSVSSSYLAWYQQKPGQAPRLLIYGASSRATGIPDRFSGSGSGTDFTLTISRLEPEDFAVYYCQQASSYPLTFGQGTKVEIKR", "Result value": 9.41}
{"Binder": "FS22-172-003-AA/FS28-256-012 (bispecific antibody, human IgG1, kappa, L234A L235A, V domains shown, IgG1 mAb^2 with LALA) VH: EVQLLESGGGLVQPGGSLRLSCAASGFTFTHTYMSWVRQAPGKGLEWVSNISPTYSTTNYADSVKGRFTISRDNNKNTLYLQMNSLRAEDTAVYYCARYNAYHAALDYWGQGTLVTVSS VL: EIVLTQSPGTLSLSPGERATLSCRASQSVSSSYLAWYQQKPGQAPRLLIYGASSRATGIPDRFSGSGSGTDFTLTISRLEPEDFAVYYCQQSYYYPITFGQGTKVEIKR", "Result value": 8.51}
{"Binder": "FS22-172-003-AA/FS28-256-273 (bispecific antibody, human IgG1, kappa, L234A L235A, V domains shown, IgG1 mAb^2 with LALA) VH: EVQLLESGGGLVQPGGSLRLSCAASGFTFTHTYMSWVRQAPGKGLEWVSSISPTYSTTNYADSVKGRFTISRDNNKNTLYLQMNSLRAEDTAVYYCARYNAYHAALDYWGQGTLVTVSS VL: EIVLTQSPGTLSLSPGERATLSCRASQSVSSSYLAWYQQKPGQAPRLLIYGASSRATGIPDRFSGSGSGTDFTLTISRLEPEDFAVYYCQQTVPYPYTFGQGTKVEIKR", "Result value": 8.22}
